Biological target: human V2 receptor (Homo sapiens, UniProt P30518)
Sequence (P30518 whole entry): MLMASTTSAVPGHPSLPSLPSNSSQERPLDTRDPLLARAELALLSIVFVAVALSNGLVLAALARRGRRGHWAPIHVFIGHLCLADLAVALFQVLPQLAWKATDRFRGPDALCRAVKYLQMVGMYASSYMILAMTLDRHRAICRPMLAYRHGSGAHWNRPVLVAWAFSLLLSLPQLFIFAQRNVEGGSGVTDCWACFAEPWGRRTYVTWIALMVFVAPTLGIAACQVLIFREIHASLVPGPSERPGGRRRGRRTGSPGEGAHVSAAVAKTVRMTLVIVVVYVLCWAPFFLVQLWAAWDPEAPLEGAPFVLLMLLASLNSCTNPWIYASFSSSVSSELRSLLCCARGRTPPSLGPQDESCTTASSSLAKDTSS
Assay: Cellular in vitro assay for vasopressin receptor activity, V2 cell line (CRE-luciferase)
Conditions: CHO cell line transfected with human V2 receptor; agonist [Arg8]-vasopressin at EC50 concentration, 3 hours; read-out: IC50hV2
List of pIC50 values.
pIC50 here is simply -log10 of the concentration when that concentration is written in mol/L.

Answered cases to consult:
compound: CC(F)c1nc(Cn2nc(-c3ccc(Cl)cc3)n(C[C@H](O)C(F)(F)F)c2=O)nn1-c1ccccc1OC(F)(F)F (single isomer, unassigned) [Example 27]
experimental-target: human V2 receptor (Homo sapiens, UniProt P30518)
pIC50: 8.01

compound: CC(F)c1nc(Cn2nc(-c3ccc(Cl)cc3)n(C[C@H](O)C(F)(F)F)c2=O)nn1-c1cccc(F)c1 (single isomer, unassigned) [Example 15]
experimental-target: human V2 receptor (Homo sapiens, UniProt P30518)
pIC50: 8.11

compound: CC(F)c1nc(Cn2nc(-c3ccc(Cl)cc3)n(C[C@H](O)C(F)(F)F)c2=O)nn1-c1ncccc1C(F)(F)F (single isomer, unassigned) [Example 12]
experimental-target: human V2 receptor (Homo sapiens, UniProt P30518)
pIC50: 7.65

compound: CC(F)c1nc(Cn2nc(-c3ccc(Cl)cc3)n(C[C@H](O)C(F)(F)F)c2=O)nn1-c1ccccc1C#N (single isomer, unassigned) [Example 39]
experimental-target: human V2 receptor (Homo sapiens, UniProt P30518)
pIC50: 6.58

compound: CC(F)(F)c1nc(Cn2nc(-c3ccc(Cl)cc3)n(C[C@H](O)C(F)(F)F)c2=O)nn1-c1ccccc1Cl
experimental-target: human V2 receptor (Homo sapiens, UniProt P30518)
pIC50: 8.94

compound: CC(C)c1ccccc1-n1nc(Cn2nc(-c3ccc(Cl)cc3)n(C[C@H](O)C(F)(F)F)c2=O)nc1C(C)F (mixture of isomers)
experimental-target: human V2 receptor (Homo sapiens, UniProt P30518)
pIC50: 7.46

# pIC50 (compound: `CC(F)(F)c1nc(Cn2nc(-c3ccc(Cl)cc3)n(C[C@H](O)C(F)(F)F)c2=O)nn1-c1c(F)cccc1F` ) is 8.64

Query CC(F)c1nc(Cn2nc(-c3ccc(Cl)cc3)n(C[C@H](O)C(F)(F)F)c2=O)nn1-c1ccccc1S(N)(=O)=O (mixture of isomers) yields pIC50 of 6.53

Notebook: CC(F)c1nc(Cn2nc(-c3ccc(Cl)cc3)n(C[C@H](O)C(F)(F)F)c2=O)nn1-c1ccccc1OC(F)F (mixture of isomers) [Example 31] , pIC50 read as 8.34

Sample `NCC(F)(F)c1nc(Cn2nc(-c3ccc(Cl)cc3)n(C[C@H](O)C(F)(F)F)c2=O)nn1-c1ccccc1Cl.O=CO` ; pIC50 observed: 8.50

Record summary for CC(F)c1nc(Cn2nc(-c3ccc(Cl)cc3)n(C[C@H](O)C(F)(F)F)c2=O)nn1-c1ncccc1Cl (single isomer, unassigned) [Example 21] : reported pIC50 = 7.90

compound CC(F)c1nc(Cn2nc(-c3ccc(Cl)cc3)n(C[C@H](O)C(F)(F)F)c2=O)nn1-c1ccccc1OC(F)(F)F (single isomer, unassigned) [Example 26] , pIC50 observed: 7.76
